Tested on: Candida albicans SNY425 biofilm
Assay: biofilm OD600 with compound plus antifungal (OD600 (absorbance)); higher = more biofilm remaining
Details: assay detail: sustained inhibition (compound + antifungal during 90-min adherence and 24-h growth)
Counter-ions that a name gives are not always drawn.
// label = 1 if biofilm OD600 is not less than 0.2, otherwise -1

1) CCOC(=O)c1ccc(OC(=O)CCCCCNC(=N)N)cc1 [Gabexate mesylate] + CC[C@H](C)C[C@H](C)CCCCCCCCC(=O)N[C@H]1C[C@@H](O)[C@@H](NCCN)NC(=O)[C@@H]2[C@@H](O)CCN2C(=O)[C@H]([C@H](O)CCN)NC(=O)[C@H]([C@H](O)[C@@H](O)c2ccc(O)cc2)NC(=O)[C@@H]2C[C@@H](O)CN2C(=O)[C@H]([C@@H](C)O)NC1=O [caspofungin] (first compound 12.5 µM) :: -1
2) CC(C)C[C@H](NC(=O)[C@@H](O)[C@H](N)Cc1ccccc1)C(=O)O [Bestatin·HCl] + C[C@@H]1[C@H](O)[C@@H](C)/C=C/C=C/C=C/C=C/C=C/C=C/C=C/[C@H](O[C@@H]2O[C@H](C)[C@@H](O)[C@H](N)[C@@H]2O)C[C@@H]2O[C@](O)(C[C@@H](O)C[C@@H](O)[C@H](O)CC[C@@H](O)C[C@@H](O)CC(=O)O[C@H]1C)C[C@H](O)[C@H]2C(=O)O [amphotericin B] (first compound 12.5 µM) :: 1
3) C[C@H](NC(=O)[C@@H]1CCCN1C(=O)[C@@H]1CCCN1C(=O)[C@@H](O)[C@H](N)Cc1ccccc1)C(N)=O [Apstatin] + C[C@@H]1[C@H](O)[C@@H](C)/C=C/C=C/C=C/C=C/C=C/C=C/C=C/[C@H](O[C@@H]2O[C@H](C)[C@@H](O)[C@H](N)[C@@H]2O)C[C@@H]2O[C@](O)(C[C@@H](O)C[C@@H](O)[C@H](O)CC[C@@H](O)C[C@@H](O)CC(=O)O[C@H]1C)C[C@H](O)[C@H]2C(=O)O [amphotericin B] (first compound 12.5 µM) :: -1
4) CC(C)C[C@@H](C=O)NC(=O)[C@H](CC(C)C)NC(=O)[C@H](CC(C)C)NC(=O)OCc1ccccc1 + OC(Cn1cncn1)(Cn1cncn1)c1ccc(F)cc1F [fluconazole] (first compound 12.5 µM) :: -1
